Test system: EMT6 tumor-bearing model mice
Test: Biodistribution in tumor and organs of tumor-bearing mouse (Example 14)
Format: in vivo, mouse (Balb/c nu/nu)
Conditions: 60 minutes after administration, mean
READOUT: Heart (% ID/g)

{"MOLECULE": "O=[N+]([O-])c1nccn1CC(O)C[18F] (stereo not shown) [[^18F]FMISO, [^18F]fluoromisonidazole, reference compound]", "Heart / % ID/g": 5.12}

a. O=[N+]([O-])c1nccn1CC(CO)(CO)C[18F]
b. O=[N+]([O-])c1nc(CO)cn1CC(CO)(CO)C[18F]
c. O=[N+]([O-])c1nccn1CCC(CO)(CO)C[18F]
Q: Rank descending by Heart. Your reply should list the labels following the order given in the request.
Ans: c, a, b
(c: 3.46 % ID/g, a: 2.35 % ID/g, b: 1.32 % ID/g)

Just for reference, patent US9107964B2 is where these values come from.
